Listing of recorded normalised growth rate inhibition by entry.
Test system: HS578T
protocol.notes: normalised growth rate inhibition (GR value) relative to DMSO control (GR (1 = untreated growth, 0 = cytostasis, <0 = cytotoxic)); higher = less growth inhibition
condition.description: 0.37 µM; 72 h
Keep it simple and answer with nothing but the number.

CC1=C(CO)C(=O)O[C@@H]([C@@H](C)[C@H]2CC[C@H]3[C@@H]4C[C@H]5O[C@]56[C@@H](O)C=CC(=O)[C@]6(C)[C@H]4CC[C@]23C)C1 ... 0.944
COc1ccc(-c2ccc3c(N4CCOC[C@@H]4C)nc(N4CCOC[C@@H]4C)nc3n2)cc1CO ... 0.176
CC(=O)c1c(C)c2cnc(Nc3ccc(N4CCNCC4)cn3)nc2n(C2CCCC2)c1=O ... 0.485
CNC(=O)c1ccc(Nc2cc(Nc3ccccc3S(=O)(=O)C(C)C)c3cc[nH]c3n2)nc1 ... 0.77
N#CC[C@H](C1CCCC1)n1cc(-c2ncnc3[nH]ccc23)cn1 ... 0.973
N#CCNC(=O)c1ccc(-c2ccnc(Nc3ccc(N4CCOCC4)cc3)n2)cc1 ... 0.762
COc1cc(N2CCC(N3CCN(C)CC3)CC2)ccc1Nc1ncc(Cl)c(Nc2ccccc2S(=O)(=O)C(C)C)n1 ... 0.609

Switching to the query record.
Need normalised growth rate inhibition, item Nc1cccc(-c2cc3c(Oc4cccc(O)c4)ncnc3[nH]2)c1
0.978

====

Consider the following molecules and their measured normalised growth rate inhibition readings.
System: MCF10A
protocol.notes: normalised growth rate inhibition (GR value) relative to DMSO control (GR (1 = untreated growth, 0 = cytostasis, <0 = cytotoxic)); higher = less growth inhibition
condition.description: 0.04 µM; 72 h
Just the number, please.

COc1cc2ncn(-c3cc(OCc4ccccc4C(F)(F)F)c(C(N)=O)s3)c2cc1OC ... 0.96
COc1cc(C(=O)N2CCC(N3CCN(C)CC3)CC2)ccc1Nc1ncc2c(n1)N(C)c1ccccc1C(=O)N2C [XMD-1150] ... 0.973
Cc1cn(-c2cc(NC(=O)c3ccc(C)c(Nc4nccc(-c5cccnc5)n4)c3)cc(C(F)(F)F)c2)cn1 [nilotinib] ... 1

We next turn to a different molecule, shown below.
Query: normalised growth rate inhibition; subject: CCOc1cc2ncc(C#N)c(Nc3ccc(F)c(Cl)c3)c2cc1NC(=O)/C=C/CN(C)C [pelitinib]
0.542

====

Tested on: MCF7
protocol.notes: normalised growth rate inhibition (GR value) relative to DMSO control (GR (1 = untreated growth, 0 = cytostasis, <0 = cytotoxic)); higher = less growth inhibition
condition.description: 3.33 µM; 72 h
# normalised growth rate inhibition >= 0.08 gives fulfilled, anything below gives not fulfilled

Below are worked cases with known answers.
COC1=C2C[C@@H](C)C[C@H](OC)[C@H](O)[C@@H](C)/C=C(\C)[C@H](OC(N)=O)[C@@H](OC)/C=C\C=C(/C)C(=O)NC(=CC1=O)C2=O [geldanamycin] ... not fulfilled
Cc1cc(Nc2cc(N3CCN(C)CC3)nc(Sc3ccc(NC(=O)C4CC4)cc3)n2)n[nH]1 [tozasertib] ... not fulfilled
Cn1cc(-c2[nH]c3cc(NC(=O)[C@H](N)C4CCCCC4)cc4c3c2C=NNC4=O)cn1 ... fulfilled
Cc1ncc(-c2ccnc(Nc3ccc(S(C)(=O)=O)cc3)n2)n1C(C)C [AZD-5438] ... not fulfilled

Test whether the compound C[C@@H]1C[C@H]2O[C@@H]2/C=C\C=C\C(=O)Cc2c(Cl)c(O)cc(O)c2C(=O)O1 [radicicol] records normalised growth rate inhibition of 0.08 or higher.
fulfilled

Could you tell me if the measured normalised growth rate inhibition of CCCS(=O)(=O)Nc1ccc(F)c(C(=O)c2c[nH]c3ncc(Cl)cc23)c1F [PLX-4720] reaches 0.08 or more?
fulfilled

Tell me whether normalised growth rate inhibition is at least 0.08 here: FC(F)c1nc2ccccc2n1-c1nc(N2CCOCC2)nc(N2CCOCC2)n1 [ZSTK-474]
not fulfilled

Evaluate O=C(Nc1cccc(Nc2ncc(Br)c(NCCc3cnc[nH]3)n2)c1)N1CCCC1 [BX-912] : normalised growth rate inhibition at minimum 0.08?
fulfilled

====

Listed here are compounds together with their documented normalised growth rate inhibition.
System: MCF10A
protocol.notes: normalised growth rate inhibition (GR value) relative to DMSO control (GR (1 = untreated growth, 0 = cytostasis, <0 = cytotoxic)); higher = less growth inhibition
condition.description: 0.04 µM; 72 h
// return just the number, without any unit appended

CO[C@H]1C[C@@H]2CC[C@@H](C)[C@@](O)(O2)C(=O)C(=O)N2CCCC[C@H]2C(=O)O[C@H]([C@H](C)C[C@@H]2CC[C@@H](O)[C@H](OC)C2)CC(=O)[C@H](C)/C=C(\C)[C@@H](O)[C@@H](OC)C(=O)[C@H](C)C[C@H](C)/C=C/C=C/C=C/1C ... 0.982
Cc1cc2c(F)c(Oc3ncnn4cc(OC[C@@H](C)O)c(C)c34)ccc2[nH]1 ... 0.992
CC(=O)Nc1nc(C)c(-c2ccc(Cl)c(S(=O)(=O)NCCO)c2)s1 ... 0.997
Cn1cnc2c(F)c(Nc3ccc(Br)cc3Cl)c(C(=O)NOCCO)cc21 ... 0.598
CC[C@@H]1C(=O)N(C)c2cnc(Nc3ccc(C(=O)NC4CCN(C)CC4)cc3OC)nc2N1C1CCCC1 ... -0.0473
CCOc1cc2ncc(C#N)c(Nc3ccc(OCc4ccccn4)c(Cl)c3)c2cc1NC(=O)/C=C/CN(C)C ... 0.441

State the recorded normalised growth rate inhibition for this entry: Nc1ccc(-c2ccc3ncc4ccc(=O)n(-c5cccc(C(F)(F)F)c5)c4c3c2)cn1
0.169

Please give the measured normalised growth rate inhibition for this compound: Cn1c(=O)n(-c2ccc(C(C)(C)C#N)cc2)c2c3cc(-c4cnc5ccccc5c4)ccc3ncc21
0.393

====

Tested on: MCF7
protocol.notes: normalised growth rate inhibition (GR value) relative to DMSO control (GR (1 = untreated growth, 0 = cytostasis, <0 = cytotoxic)); higher = less growth inhibition
condition.description: 1.11 µM; 72 h
Classify as follows. Reported normalised growth rate inhibition greater than or equal to 0.08: YES. Reported normalised growth rate inhibition below: NO.

CC[C@@H]1C(=O)N(C)c2cnc(Nc3ccc(C(=O)NC4CCN(C)CC4)cc3OC)nc2N1C1CCCC1 ... NO
O=c1[nH]c2ccccc2n1C1CCN(Cc2ccc(-c3[nH]c4cc5ncnc5cc4nc3-c3ccccc3)cc2)CC1 ... YES
CN1CC[C@H](c2c(O)cc(O)c3c(=O)cc(-c4ccccc4Cl)oc23)[C@H](O)C1 ... NO
Cc1cnc(-c2cnc(NCCNc3ccc(C#N)cn3)nc2-c2ccc(Cl)cc2Cl)[nH]1 ... YES
COc1cc(OC)cc(-c2ccc3ncc4ccc(=O)n(-c5ccc(N6CCNCC6)c(C(F)(F)F)c5)c4c3c2)c1 ... YES
Nc1cccc(-c2cc3c(Oc4cccc(O)c4)ncnc3[nH]2)c1 ... YES

Turning now to a further record.
Reported normalised growth rate inhibition at or above 0.08? CCN(CC)CCCCNc1ncc2cc(-c3cc(OC)cc(OC)c3)c(NC(=O)NC(C)(C)C)nc2n1
YES

====

Tested on: HS578T
protocol.notes: normalised growth rate inhibition (GR value) relative to DMSO control (GR (1 = untreated growth, 0 = cytostasis, <0 = cytotoxic)); higher = less growth inhibition
condition.description: 0.37 µM; 72 h
recorded.metric: normalised growth rate inhibition
Reply with the value as a number alone.

Here's what some known entries look like.
CCC(=O)N1CCN(c2ccc(-n3c(=O)ccc4cnc5ccc(-c6cnc7ccccc7c6)cc5c43)cc2C(F)(F)F)CC1 [torin-1] ... 0.163
CNC(=O)Nc1ccc(-c2nc(N3CC4CCC(C3)O4)c3cnn(C4CCC5(CC4)OCCO5)c3n2)cc1 ... 0.198

Form field: reported normalised growth rate inhibition of CCCS(=O)(=O)Nc1ccc(F)c(C(=O)c2c[nH]c3ncc(Cl)cc23)c1F [PLX-4720]
1.12

Need normalised growth rate inhibition, item C=CC(=O)Nc1cc2c(Nc3ccc(F)c(Cl)c3)ncnc2cc1OCCCN1CCOCC1 [canertinib]
0.969

====

Tested on: MCF7
protocol.notes: normalised growth rate inhibition (GR value) relative to DMSO control (GR (1 = untreated growth, 0 = cytostasis, <0 = cytotoxic)); higher = less growth inhibition
condition.description: 1.11 µM; 72 h
normalised growth rate inhibition values for the compounds below.

Cc1cc2c(F)c(Oc3ncnn4cc(OC[C@@H](C)O)c(C)c34)ccc2[nH]1 ... 0.908
CS(=O)(=O)CCNCc1ccc(-c2ccc3ncnc(Nc4ccc(OCc5cccc(F)c5)c(Cl)c4)c3c2)o1 ... 0.936
OCCCNc1cc(-c2ccnc(Nc3cccc(Cl)c3)n2)ccn1 ... -0.332

What measured normalised growth rate inhibition goes with CCn1c(-c2nonc2N)nc2c(C#CC(C)(C)O)ncc(OC[C@H]3CCCNC3)c21 ?
0.374

So what does the record say about normalised growth rate inhibition for Cc1cc(C(C)Nc2ccccc2)c2nc(N3CCOCC3)cc(=O)n2c1 (configuration not stated) ?
0.98
